Assay: Cmax in plasma after oral dose (10 mg/kg)
Type: ADME, organism-based
Set-up: dose 10 mg/kg, route oral
Measure: Cmax (nM)
Numbers only here, please. The scale is nM.

Recorded results for 2 compounds are shown here.
Compound: CC(C)[C@H](NC(=O)OCc1cccnc1)C(=O)N[C@@H](Cc1ccccc1)C(O)[C@H](Cc1ccccc1)NC(=O)[C@H](NC(=O)OCc1cccnc1)C(C)C (some centres undefined)
Units Label: nM
Cmax: 220
--
Compound: CC(C)[C@H](NC(=O)OCc1ccccn1)C(=O)N[C@@H](Cc1ccccc1)C(O)[C@H](Cc1ccccc1)NC(=O)[C@H](NC(=O)OCc1ccccn1)C(C)C (some centres undefined)
Units Label: nM
Cmax: 1600

If you can, please state the reported Cmax value of CC(C)[C@H](NC(=O)N(C)Cc1ccccn1)C(=O)N[C@@H](Cc1ccccc1)C(O)[C@H](Cc1ccccc1)NC(=O)[C@H](NC(=O)N(C)Cc1ccccn1)C(C)C (some centres undefined) .
1500

Also CC(C)[C@H](NC(=O)N(C)Cc1cccnc1)C(=O)N[C@@H](Cc1ccccc1)[C@H](O)[C@H](O)[C@H](Cc1ccccc1)NC(=O)[C@H](NC(=O)N(C)Cc1cccnc1)C(C)C , if possible.
520
